Measured abundance fitness, listed per entry for reference.
B1: Retinoic acid receptor beta, residues 85 to 161; numbered along this chain, P10826 (parent)
chain: YKPCFVCQDKSSGYHYGVSACEGCKGFFRRSIQKNMIYTCHRDKNCVINKVTRNRCQYCRLQKCFEVGMSKESVRND

Variants of: B1
method: abundance fitness (aPCA) (normalised: wild type 0, dead -1); higher = more abundant; growth selection in yeast, the domain comes from the species named
run-parameters: Homo sapiens
# print the numeric value only

Examples with answers:
variant-name: C59P
observed-value: -0.777
//
variant-name: C46F
observed-value: -0.988
//
variant-name: T52S
observed-value: 0.032
//
variant-name: Y38F
observed-value: -0.187
//
variant-name: C7N
observed-value: -0.615

Challenge: Fill in: abundance fitness of R42I is ___
Response given: -0.114

Challenge: Consider the variant shown here: S12C What is its recorded abundance fitness?
Response given: 0.168

Challenge: What value of abundance fitness has been reported for the following variant? D9I
Response given: -0.726

Challenge: Any idea what its abundance fitness is? The variant is C46G
Response given: -0.123

Challenge: Query (variant): Q33T ; field requested: abundance fitness
Response given: -0.15

Challenge: Please look up its abundance fitness: N35L
Response given: -0.235

Challenge: I'd like to know its abundance fitness. The variant in question is H41G
Response given: -0.024

Challenge: I am curious: what abundance fitness value has been reported for R42V ?
Response given: 0.177

Challenge: Please report the recorded abundance fitness for S19T .
Response given: 0.02

Challenge: Would you kindly share the measured abundance fitness for C40R ?
Response given: -0.883

Challenge: Any idea what its abundance fitness is? The variant is I48G
Response given: -0.605

Challenge: Look up abundance fitness for this variant: P3W
Response given: -0.223

Challenge: Could you share which abundance fitness value was measured for I37K ?
Response given: 0.13

Challenge: State the recorded abundance fitness for this entry: S19H
Response given: -0.032

Challenge: # lookup: abundance fitness of S11F
Response given: -0.377

Challenge: Any idea what abundance fitness was measured for V51E ?
Response given: 0.171
